Parameter Fmax (micros.) [%]: see the listing below.
Assay: metabolic stability in human liver microsomes
Type: in vitro ADME
Settings: estimated maximum oral bioavailability from human liver microsome incubation; 0.3 μM, 0.5 mg/ml protein, 37° C., 60 min
value-type: Fmax (micros.) [%] (%)

[
  {
    "compound": "CN(CCCCCCCC(F)(F)C(F)(F)F)CCCCCC1Cc2cc(O)ccc2C2[C@@H]1C1CC[C@@](C)(O)[C@@]1(C)C[C@@H]2F (stereo partly drawn)",
    "scale-unit": "%",
    "value": 39
  },
  {
    "compound": "C[C@]12C[C@H](F)C3c4ccc(O)cc4CC(CCCCCN4CCC[C@H]4CCCCCC(F)(F)C(F)(F)F)[C@H]3C1CC[C@@]2(C)O (stereo partly drawn)",
    "scale-unit": "%",
    "value": 40
  },
  {
    "compound": "CN(CCCCCCCC(F)(F)C(F)(F)F)CCCCCC1Cc2c(ccc(O)c2Cl)C2[C@@H]1C1CC[C@@](C)(O)[C@@]1(C)C[C@@H]2F (stereo partly drawn)",
    "scale-unit": "%",
    "value": 39
  }
]
